System: galium (catchweed bedstraw, Galium aparine)
Experiment: Test A postemergence, galium
Assay type: in vivo
Details: Postemergence, 500 g ai/ha; visual injury, 0 to 100 scale (0 no effect, 100 complete control), approx. 10 days
MEASUREMENT KIND: Plant response rating, Galium
Just the number.

Below are worked cases with known answers.
INSERT INTO assay_data (chemical_string, value) VALUES
  ('Cc1cc(Cl)c(NS(=O)(=O)C(F)(F)F)cc1C(=O)N1CCSCC1', 90),
  ('COc1cc(-c2cc(N(S(=O)(=O)C(F)(F)F)S(=O)(=O)C(F)(F)F)c(C)cc2C)c(=O)n(C)n1', 70),
  ('Cc1cc(Br)c(NS(=O)(=O)C(F)(F)F)cc1C(=O)N1CCOCC1', 80);

Turning now to a further compound:
Any idea what its Plant response rating, Galium is? The compound is `CCc1cc(-c2cc(N(S(=O)(=O)C(F)(F)F)S(=O)(=O)C(F)(F)F)c(C)cc2C)c(=O)n(C)n1`
70
